biological target: Human Polymorphonuclear Leukocyte Elastase (Homo sapiens, UniProt P08246); experiment: Inhibition of human polymorphonuclear leukocyte elastase via hydrolysis of Boc-AAPAN or Boc-AAPVN; format: biochemical; details: pH 7.5, Table I; second order rate constant for inactivation of the enzyme; read-out: Kobs /[I]
For each record, write down the corresponding kinact/KI.
Numbers only, in M⁻¹ s⁻¹.

Here's what some known entries look like.
compound="CCC[C@@H](NC(=O)N1C(=O)C(CC)(CC)[C@@H]1Oc1ccc(CN2CCC(OC)C2)cc1)c1ccc(C)cc1 (stereo partly shown) [R4+R5=--CH2 CH2 CH(OMe)CH2 --; R6=H]" assay_metric=kinact/KI unit_symbol="M⁻¹ s⁻¹" recorded_number=765000
compound="CCC[C@@H](NC(=O)N1C(=O)C(CC)(CC)[C@@H]1Oc1ccc(CN(CC)C(C)COC)cc1)c1ccc(C)cc1 (stereo partly shown) [R4=Et; R5=CH(Me)CH2 OMe; R6=H]" assay_metric=kinact/KI unit_symbol="M⁻¹ s⁻¹" recorded_number=670000
compound="CCC[C@@H](NC(=O)N1C(=O)C(CC)(CC)[C@@H]1Oc1ccc(CN(C)C)cc1)c1ccc(C)cc1 [R4=Me; R5=Me; R6=H]" assay_metric=kinact/KI unit_symbol="M⁻¹ s⁻¹" recorded_number=560000
compound=CCC[C@@H](NC(=O)N1C(=O)C(CC)(CC)[C@@H]1Oc1ccc(CN2CCN(C(=O)OC)CC2)cc1)c1ccc(C)cc1 assay_metric=kinact/KI unit_symbol="M⁻¹ s⁻¹" recorded_number=730000
compound="CCCCN(C)C(=O)OCCN(C)Cc1ccc(O[C@@H]2N(C(=O)N[C@H](CCC)c3ccc(C)cc3)C(=O)C2(CC)CC)cc1 [R4=Me; R5=CH2 CH2 OCON(Me)n-Bu; R6=H]" assay_metric=kinact/KI unit_symbol="M⁻¹ s⁻¹" recorded_number=1.3e+06
compound="CCC[C@@H](NC(=O)N1C(=O)C(CC)(CC)[C@@H]1Oc1ccc(CN(CC)CCNC(C)=O)cc1)c1ccc(C)cc1 [R4=Et; R5=CH2 CH2 NHAc; R6=H]" assay_metric=kinact/KI unit_symbol="M⁻¹ s⁻¹" recorded_number=850000
compound="CCC[C@@H](NC(=O)N1C(=O)C(CC)(CC)[C@@H]1Oc1ccc(CN2CCSC2)cc1)c1ccc(C)cc1 [R4+R5=--CH2 CH2 SCH2 --; R6=H]" assay_metric=kinact/KI unit_symbol="M⁻¹ s⁻¹" recorded_number=940000
compound="CCC[C@@H](NC(=O)N1C(=O)C(CC)(CC)[C@@H]1Oc1ccc(CN(C)CCCOC(=O)N(C)C)cc1)c1ccc(C)cc1 [R4=Me; R5=CH2 CH2 CH2 OCONMe2; R6=H]" assay_metric=kinact/KI unit_symbol="M⁻¹ s⁻¹" recorded_number=2.1e+06

Batch lookup, kinact/KI per entry.
1. CCC[C@@H](NC(=O)N1C(=O)C(CC)(CC)[C@@H]1Oc1ccc(CN(C)CCOC(=O)NC(C)C)cc1)c1ccc(C)cc1 [R4=Me; R5=CH2 CH2 OCONH(i-Pr); R6=H]
2. CCC[C@@H](NC(=O)N1C(=O)C(CC)(CC)[C@@H]1Oc1ccc(CN(C)CCCOC)cc1)c1ccc(C)cc1 [R4=Me; R5=CH2 CH2 CH2 OMe; R6=H]

[reply]
1: 1.85e+06; 2: 1.5e+06

###

For each record, write down the corresponding kinact/KI.
Target: Human Polymorphonuclear Leukocyte Elastase (Homo sapiens)
Sequence (P08246 30-267): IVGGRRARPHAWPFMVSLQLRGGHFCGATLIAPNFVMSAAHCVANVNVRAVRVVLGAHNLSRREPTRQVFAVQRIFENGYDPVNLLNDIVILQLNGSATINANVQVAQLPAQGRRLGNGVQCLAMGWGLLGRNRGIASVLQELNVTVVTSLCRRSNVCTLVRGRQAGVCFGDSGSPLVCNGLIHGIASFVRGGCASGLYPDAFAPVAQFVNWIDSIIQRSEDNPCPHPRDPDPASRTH
Assay: Inhibition of human polymorphonuclear leukocyte elastase via hydrolysis of Boc-AAPAN or Boc-AAPVN
Format: biochemical
Details: pH 7.5, Table I; second order rate constant for inactivation of the enzyme; read-out: Kobs /[I]
Give bare numbers, in M⁻¹ s⁻¹.

compound=CCC[C@@H](NC(=O)N1C(=O)C(CC)(CC)[C@@H]1Oc1ccc(CNC(=O)Cc2c[nH]cn2)cc1)c1ccc(C)cc1 assay_metric=kinact/KI recorded_number=850000
compound="CCC[C@@H](NC(=O)N1C(=O)C(CC)(CC)[C@@H]1Oc1ccc(C(COC)N(CCC)CCC)cc1)c1ccc(C)cc1 (some centres unmarked)" assay_metric=kinact/KI recorded_number=1e+06
compound=CCC[C@@H](NC(=O)N1C(=O)C(CC)(CC)[C@@H]1Oc1ccc(CN2CCOCC2)cc1)c1ccc(C)cc1 assay_metric=kinact/KI recorded_number=820000

Batch lookup, kinact/KI per entry.
1. CCC[C@@H](NC(=O)N1C(=O)C(CC)(CC)[C@@H]1Oc1ccc(CN(C)CCOC(=O)N2CCOCC2)cc1)c1ccc(C)cc1
2. CCC[C@@H](NC(=O)N1C(=O)C(CC)(CC)[C@@H]1Oc1ccc(CN2CCN(C(=O)N(CC)CC)CC2)cc1)c1ccc(C)cc1
3. CCC[C@@H](NC(=O)N1C(=O)C(CC)(CC)[C@@H]1Oc1ccc(CNC(=O)NC)cc1)c1ccc(C)cc1
4. CCC[C@@H](NC(=O)N1C(=O)C(CC)(CC)[C@@H]1Oc1ccc(CN(CC)CCOC(=O)N(C)C)cc1)c1ccc(C)cc1

[reply]
1: 1.4e+06; 2: 1.4e+06; 3: 1.1e+06; 4: 1.4e+06
